# protocol-description: Elimination half life in monkey at 0.1 mg/kg, iv
# Assay type: ADME, organism-based, Macaca mulatta
# run-parameters: rhesus monkey, in vivo, read-out: beta t1/2 (converted)
value-type: half-life (h)
Please respond with the number in h and leave the unit unwritten.

Quick one: half-life of Cc1nnn(C)c1-c1cnc2c3ccc(C(C)(C)O)cc3n([C@H](c3ccccc3)C3CCOCC3)c2c1 [EZOBRESIB] ? 2

* * *

# protocol-description: Cmax in human LG0787F cells xenografted in NSG mouse at 1 mg/kg/day, po bid
# Type: ADME, organism-based
# Set-up: dose 1 mg/kg/day, route po
# run-parameters: in vivo
value-type: Cmax (nM)
Please respond with the number in nM and leave the unit unwritten.

Quick one: Cmax of Cc1nnn(C)c1-c1cnc2c3ccc(C(C)(C)O)cc3n([C@H](c3ccccc3)C3CCOCC3)c2c1 [EZOBRESIB] ? 40

* * *

# protocol-description: Volume of distribution at steady state in rat at 1 mg/kg, iv
# Type: ADME, organism-based
# run-parameters: in vivo, read-out: Vdss
value-type: Vd (L/kg)
Please respond with the number in L/kg and leave the unit unwritten.

Quick one: Vd of "Cc1nnn(C)c1-c1cnc2c3ccc(C(C)(C)O)cc3n([C@H](c3ccccc3)C3CCOCC3)c2c1" ? 4.3

* * *

For each of the molecules below, state its Papp B→A.
# protocol-description: Permeability coefficient across basolateral to apical side in human Caco-2 cells
# Assay type: ADME, cell-based
# run-parameters: read-out: permeability
Please respond with the number in ×10⁻⁶ cm/s and leave the unit unwritten.

Quick one: Papp B→A of "Cc1noc(C)c1-c1cc(C(N)=O)c2c3ccc(C(C)(C)O)cc3n([C@H](c3ccccc3)C3CCOCC3)c2c1" ? 36.4

Quick one: Papp B→A of "Cc1nnn(C)c1-c1cnc2c3ccc(C(C)(C)O)cc3n([C@H](c3ccccc3)C3CCOCC3)c2c1" ? 34.7

Quick one: Papp B→A of "Cc1noc(C)c1-c1cnc2c3ccc(C(C)(C)O)cc3n([C@H](c3ccccc3)C3CCOCC3)c2c1" ? 22.9

Quick one: Papp B→A of "Cc1noc(C)c1-c1cc(C(N)=O)c2c3ccc(C(C)(C)O)cc3n(Cc3ccccc3)c2c1" ? 20.2

* * *

# Tested on: NCI-H23
# protocol-description: Anticancer activity against human NCI-H23 cells
# Assay type: functional, cell-based
value-type: IC50 (nM)
Please respond with the number in nM and leave the unit unwritten.

Quick one: IC50 of "Cc1nnn(C)c1-c1cnc2c3ccc(C(C)(C)O)cc3n([C@H](c3ccccc3)C3CCOCC3)c2c1" ? 62

* * *

# protocol-description: Total plasma clearance in dog at 0.1 mg/kg, iv
# Type: ADME, organism-based, Canis lupus familiaris
value-type: clearance (mL/min/kg)
Please respond with the number in mL/min/kg and leave the unit unwritten.

Quick one: clearance of "Cc1nnn(C)c1-c1cnc2c3ccc(C(C)(C)O)cc3n([C@H](c3ccccc3)C3CCOCC3)c2c1" ? 15

* * *

# protocol-description: Metabolic stability in human liver microsomes assessed as parent compound remaining at 0.5 uM after 10 mins
# Format: ADME, Microsome
# run-parameters: read-out: Stability
value-type: remaining at 10 min, 0.5 µM
Answer format reminder: number followed by unit.

Quick one: remaining at 10 min, 0.5 µM of "Cc1nnn(C)c1-c1cnc2c3ccc(C(C)(C)O)cc3n([C@H](c3ccccc3)C3CCOCC3)c2c1" ? 82%

Quick one: remaining at 10 min, 0.5 µM of "Cc1noc(C)c1-c1cc(C(N)=O)c2c3cc(C(=O)N4C[C@@H](C)O[C@@H](C)C4)ccc3n(Cc3ccccc3)c2c1" ? 9%

Quick one: remaining at 10 min, 0.5 µM of "Cc1noc(C)c1-c1cc(C(N)=O)c2c3ccc(C(C)(C)O)cc3n(Cc3ccccc3)c2c1" ? 58%

Quick one: remaining at 10 min, 0.5 µM of "Cc1noc(C)c1-c1cnc2c3ccc(C(C)(C)O)cc3n([C@H](c3ccccc3)C3CCOCC3)c2c1" ? 54%

Quick one: remaining at 10 min, 0.5 µM of "Cc1noc(C)c1-c1cc(C(N)=O)c2c3ccc(C(C)(C)O)cc3n([C@H](c3ccc(F)cc3)C3CCOCC3)c2c1" ? 52%

Quick one: remaining at 10 min, 0.5 µM of "Cc1noc(C)c1-c1cc(C(N)=O)c2c3ccc(C(C)(C)O)cc3n([C@@H](c3ccccc3)C3CCOCC3)c2c1" ? 24%

Quick one: remaining at 10 min, 0.5 µM of "Cc1noc(C)c1-c1cc(C(N)=O)c2c3ccc(C(C)(C)O)cc3n([C@H](c3ccccc3)C3CCOCC3)c2c1" ? 52%

Quick one: remaining at 10 min, 0.5 µM of "Cc1noc(C)c1-c1cc(C(N)=O)c2c3ccc(C(C)(C)O)cc3n(C(c3ccccc3)c3ccccc3)c2c1" ? 13%

Quick one: remaining at 10 min, 0.5 µM of "Cc1noc(C)c1-c1cc(C(N)=O)c2c3ccc(C(C)(C)O)cc3n(CC3CCOCC3)c2c1" ? 75%
